FYI, the data here is from PubChem BioAssay.

target-or-system: Epidermal growth factor receptor (Homo sapiens)
experimental-protocol: EGFR binders on small-molecule microarrays, primary screen, biochemical, small-molecule microarray, 635 nm fluorescence (AID 1104);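 note: score merges 667 nm emission intensity with spot signal to noise over triplicate slides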
setup-conditions: EGFR binding, higher = more signal
The following molecules are shown together with reported composite z-score values.
When you answer, write just the number.

Lab book: composite z-score of CC(C)N1C(=O)[C@@]2(Cc3ccccc31)c1ccccc1C(=O)N(C1CCCCC1)[C@H]2c1ccc(CO)cc1 noted as 0.507

The value of composite z-score measured for the molecule CN(C)CCCNC(=O)[C@@]1(C)c2ccccc2C(=O)N(Cc2cc(F)cc(C(F)(F)F)c2)[C@H]1c1ccc(CO)cc1 turned out to be -1.63

Record summary for COCCOC(=O)N1C(=O)[C@@]2(c3cc(C#CC4(O)CCCCCC4)ccc31)[C@H](c1ccc(O)cc1)N1[C@H](c3ccccc3)[C@H](c3ccccc3)OC(=O)[C@H]1[C@@H]2C(=O)Nc1nc2ccccc2s1 : reported composite z-score = 0.487

Notebook: O=C1OCCC/C=C\[C@H]2OC34C=CCN(Cc5ccccc5)C(=O)[C@H]3N(CCCCCCO)C(=O)[C@@H]4C12 (some centres not stated) , composite z-score read as -1.69

In plain terms, COCCOC(=O)N1C(=O)[C@@]2(c3cc(C#CC4=CCCCC4)ccc31)[C@H](c1ccc(O)cc1)N1[C@H](c3ccccc3)[C@H](c3ccccc3)OC(=O)[C@H]1[C@@H]2C(N)=O has a documented composite z-score of 0.584

# composite z-score of COC(=O)[C@@]1(Cc2ccc(OC)cc2)[C@H]2c3cc(C(=O)N(C)C)n(Cc4cccc5ccccc45)c3C[C@H]2CN1C(=O)c1ccccc1 = 0.671

Recorded result, CN1C(=O)C2C=CC(C(O)c3cccs3)N(Nc3ccccc3)C2C1=O (configuration not stated) , composite z-score: 0.007

Short answer for COC(=O)C(CC#Cc1ccc2c(c1)[C@]1(C(=O)N2)[C@H](c2ccc(O)cc2)N2[C@H](c3ccccc3)[C@H](c3ccccc3)OC(=O)[C@H]2[C@@H]1C(=O)Nc1nc2ccccc2s1)C(=O)OC : composite z-score was 0.626

get_value(item= C#CCN(Cc1ccccc1Br)C(/C=C/c1ccccc1)CO (configuration not stated) , readout=composite z-score) returns -0.153

Data point: CC(=O)NCCCC[C@@H]1NC(=O)[C@@H]2C[C@H](C(=O)NCCCCCCNC(=O)CS)[C@H](c3cccc(OCCO)c3)N2C1=O ; composite z-score = 0.37

According to the records, this molecule CC(C)C(=C=CC[C@@H](O)c1ccccc1OCCO)CCO displays composite z-score of -0.195

Reported composite z-score of O=C1OCCC/C=C\[C@H]2OC34C=CCN(CCN5CCOCC5)C(=O)[C@H]3N(CCCO)C(=O)[C@@H]4C12 (some centres not stated) : -0.708

Kindly note the recorded composite z-score for O=C1C2C=CC(C(O)c3ccc(F)cc3)N(Nc3ccccc3F)C2C(=O)N1c1ccccc1 (configuration not stated) , which is -0.609

---

experimental-protocol: inhibitors of hydroxyurea-induced Chk1 phosphorylation, primary screen, imaging, HeLa, phospho-Chk1 antibody, percent positive cells (AID 1186)
setup-conditions: hydroxyurea-induced phospho-Chk1 immunofluorescence imaging, higher = more signal
z-score values for the molecules below.
// return a plain number; no unit text

- molecule: "CN(C)C(=O)[C@@]1(Cc2ccccc2CN=[N+]=[N-])N=C(c2ccc(OCCCO)cc2)O[C@H]1c1ccccc1"
  recorded-number: -0.631
- molecule: "COC(=O)[C@@]1(Cc2ccc(OC)cc2)[C@H]2c3cc(C(=O)N4CCCC4)n(Cc4ccccc4)c3C[C@H]2CN1C(=O)c1ccccc1"
  recorded-number: 0.212
- molecule: "[N-]=[N+]=Nc1ccccc1[C@H]1OC(c2ccc(OCCCO)cc2)=N[C@@]1(Cc1ccccc1)C(=O)O"
  recorded-number: -0.48
- molecule: "COC(=O)[C@@]1(Cc2ccc(F)cc2)[C@H]2c3cc(C(=O)N4CCCC4)n(Cc4cc(C)n(C)n4)c3C[C@H]2CN1C(=O)c1ccccc1"
  recorded-number: 0.611
- molecule: "C#CCN(CC=C(C)C)[C@H](CO)c1ccccc1"
  recorded-number: 0.557
- molecule: "C=CCOC(=O)[C@H]1[C@@H]2C(=O)O[C@@H](c3ccccc3)[C@@H](c3ccccc3)N2[C@@H](c2ccc(OCCOC(=O)[C@H]3C[C@H]4C(=O)N5CCC[C@H]5C(=O)N4[C@H]3c3ccc(O)cc3)cc2)[C@]12C(=O)Nc1ccccc12"
  recorded-number: -0.398

C=C(COC)/C(=C/C[C@@H](OC(C)=O)c1ccc(OCCO)cc1)c1cc(C(=O)OC)ccc1OC yielded z-score of -0.307

z-score recorded for this molecule, C=CCC(OC(C)=O)[C@@H]1[C@@H](N(Cc2ccc(-c3cccc(C(F)(F)F)c3)o2)C(=O)c2ccc(-c3ccccc3)cc2)c2cc(OCCCO)ccc2N1C(=O)c1ccc(-c2ccccc2)cc1 (stereo partly drawn) , is 0.216

z-score reading for O=C1OCCC=C[C@H]2OC34C=CCN(CCN5CCOCC5)C(=O)[C@H]3N(CCCCCCO)C(=O)[C@@H]4C12 (stereo partly drawn) : -0.334

---

experimental-protocol: osmotic lysis modulators in infected erythrocytes, primary screen, PSAC antagonist project, cell-based, P. falciparum Indochina, OD700, 3 h (AID 1156)
setup-conditions: higher = more signal, called active from +8 up or from −8 down
Binary call on z-score: 1 from 1 upward, -1 beneath that.

These recorded examples may help you get a feel for the data.
- compound: "COC(=O)C(CC#Cc1ccc2c(c1)[C@]1(C(=O)N2)[C@H](c2ccc(O)cc2)N2[C@H](c3ccccc3)[C@H](c3ccccc3)OC(=O)[C@H]2[C@@H]1C(=O)Nc1nc2ccccc2s1)C(=O)OC"
  assigned-label: -1
- compound: "COc1ccc(C(=O)Nc2ccc(CN3C(=O)[C@@]4(O[C@@H](CCO)[C@H]([Si](C)(C)c5ccc(OC)cc5)[C@H]4C)c4ccccc43)cc2)cc1"
  assigned-label: 1
- compound: "COCCn1c(C(=O)N2CCCC2)cc2c1C[C@H]1CN(C(=O)c3ccccc3)[C@@](Cc3ccc(F)cc3)(C(=O)OC)[C@@H]21"
  assigned-label: 1
- compound: "CCCC=C(CCC)[C@@H](NC(=O)Oc1ccc(F)cc1)c1ccc(C(=O)OC)cc1"
  assigned-label: -1
- compound: "CN1C(=O)[C@]2(Cc3ccccc3)N=C(c3ccc(OCCCO)cc3)O[C@@H]2c2ccccc21"
  assigned-label: 1
- compound: "O=C1OCC=C[C@H]2OC34C=CCN(c5ccc6ccccc6c5)C(=O)[C@H]3N(CCCCCCO)C(=O)[C@@H]4[C@@H]12 (some centres not stated)"
  assigned-label: -1

Attention now shifts to the item below.
## Input Hello, I need to know if O=C1OCCC/C=C\[C@H]2OC34C=CCN(Cn5nnc6ccccc65)C(=O)[C@H]3N(CCCCCCO)C(=O)[C@@H]4C12 (some centres not stated) has measured z-score not below 1. Thanks!
## Output -1

---

experimental-protocol: MM1S myeloma cell viability, profiling panel, resazurin fluorescence, basal, 24 h, PK04 Diversity Set (AID 1174);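 note: MM1S multiple myeloma cell line; test concentration not given here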
setup-conditions: higher = more signal, called active from +8 up or from −8 down
The following molecules are listed with their measured z-score values.
I'd appreciate a reply containing only the number, no unit.

Example cases with answers are listed next.
- molecule: "NCCCCCNC(=O)[C@@H]1C[C@@H]2C(=O)NCC(=O)N2[C@@H]1c1ccc(O)cc1"
  z-score: 0.236
- molecule: "O=C(NCc1ccc(F)cc1)[C@H]1C[C@H]2C(=O)N[C@@H](Cc3ccccc3)C(=O)N2[C@H]1c1ccc(O)cc1"
  z-score: 0.396
- molecule: "OC([C@@H]1CC(c2ccccc2)=NO1)[C@H]1CC(c2ccccc2)=NO1 (stereo not given in full)"
  z-score: 0.129

Turning now to a further molecule:
Please fill in: z-score reported for CC(CO)N1C(=O)[C@@H]2C3C(=O)OCCC/C=C\[C@H]3OC23C=CCN(c2ccc4ccccc4c2)C(=O)[C@@H]13 (stereo not given in full) = -0.208

---

target-or-system: Pro-neuregulin-1, membrane-bound isoform (Homo sapiens) (UniProt Q02297)
Sequence (Q02297 whole entry, looked up, canonical isoform): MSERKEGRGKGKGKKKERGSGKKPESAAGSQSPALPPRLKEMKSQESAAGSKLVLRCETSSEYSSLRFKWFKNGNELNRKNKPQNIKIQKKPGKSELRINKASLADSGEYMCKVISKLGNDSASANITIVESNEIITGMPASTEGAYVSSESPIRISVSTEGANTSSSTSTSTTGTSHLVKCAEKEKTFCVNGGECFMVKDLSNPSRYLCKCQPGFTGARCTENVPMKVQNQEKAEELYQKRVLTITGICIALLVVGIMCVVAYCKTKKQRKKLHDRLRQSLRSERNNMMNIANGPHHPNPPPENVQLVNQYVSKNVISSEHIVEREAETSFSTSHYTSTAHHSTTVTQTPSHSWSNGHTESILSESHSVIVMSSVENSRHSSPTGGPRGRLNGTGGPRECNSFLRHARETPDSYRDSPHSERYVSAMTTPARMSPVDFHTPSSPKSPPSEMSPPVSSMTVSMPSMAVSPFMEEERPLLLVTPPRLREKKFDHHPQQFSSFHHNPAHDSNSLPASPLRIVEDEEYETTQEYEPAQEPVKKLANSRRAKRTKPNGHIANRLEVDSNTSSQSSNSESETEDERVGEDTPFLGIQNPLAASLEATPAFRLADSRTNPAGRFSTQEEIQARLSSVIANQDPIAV
experimental-protocol: NRG1 binders on small-molecule microarrays, primary screen, psychiatric disease protein project, biochemical, small-molecule microarray, fluorescence 635/667 (AID 1075);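 note: score combines 667 nm spot fluorescence with signal to noise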
setup-conditions: NRG1 binding, 635 nm fluorescence, higher = more signal
Binary call on composite z-score: Y from 1 upward, N beneath that.

## Input # bool: composite z-score of COc1ccc(C(=O)Nc2ccc(CN3C(=O)[C@@]4(O[C@@H](CC(=O)N5CCC[C@H]5CO)[C@H]([Si](C)(C)c5ccc(OC)cc5)[C@H]4C)c4ccccc43)cc2)cc1 >= 1
## Output Y

## Input Please indicate if the recorded composite z-score for [N-]=[N+]=Nc1ccccc1C[C@]1(C(N)=O)N=C(c2ccc(OCCCO)cc2)O[C@H]1c1ccccc1 meets or exceeds 1.
## Output Y

## Input Confirm if composite z-score reported for the compound COc1cc2c(cc1O)C(C1CC1)N(Cc1cc3c(cc1Br)OCO3)CC2 (configuration not stated) is 1 or above.
## Output N
